The compounds below have reported IC50 for C-C chemokine receptor type 5 (Homo sapiens, UniProt P51681).
measurement-kind: IC50 (nM)

>  <compound>
COc1ccccc1C1CCN(CC[C@H](CN(C)S(=O)(=O)c2ccccc2)c2cccc(Cl)c2)CC1

>  <test-target>
C-C chemokine receptor type 5 (Homo sapiens, UniProt P51681)
Sequence (P51681 whole entry): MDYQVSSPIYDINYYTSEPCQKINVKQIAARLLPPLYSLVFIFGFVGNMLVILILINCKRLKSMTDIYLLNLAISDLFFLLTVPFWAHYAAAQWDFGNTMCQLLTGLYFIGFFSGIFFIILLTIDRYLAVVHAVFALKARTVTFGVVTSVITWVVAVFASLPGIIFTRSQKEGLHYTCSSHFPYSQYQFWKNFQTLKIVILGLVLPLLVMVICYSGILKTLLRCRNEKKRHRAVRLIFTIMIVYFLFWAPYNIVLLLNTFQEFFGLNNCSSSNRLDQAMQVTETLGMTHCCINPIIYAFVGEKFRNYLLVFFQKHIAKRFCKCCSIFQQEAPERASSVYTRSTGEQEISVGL

>  <measurement-kind>
IC50

>  <output-unit>
nM

>  <reported-measurement>
1000

$$$$
>  <compound>
CN(C)S(=O)(=O)N(C)C[C@@H](CCN1CCC2(CC1)C[S+]([O-])c1ccccc12)c1ccc(Cl)c(Cl)c1 (stereo not given in full)

>  <test-target>
C-C chemokine receptor type 5 (Homo sapiens, UniProt P51681)

>  <measurement-kind>
IC50

>  <output-unit>
nM

>  <reported-measurement>
2700

$$$$
>  <compound>
CN(C[C@@H](CCN1CCC2(CC1)CS(=O)(=O)c1ccccc12)c1ccc(Cl)c(Cl)c1)S(=O)(=O)c1ccccc1

>  <test-target>
C-C chemokine receptor type 5 (Homo sapiens, UniProt P51681)

>  <measurement-kind>
IC50

>  <output-unit>
nM

>  <reported-measurement>
400

$$$$
>  <compound>
CN(C[C@@H](CCN1CCC2(CC1)CS(=O)(=O)c1ccccc12)c1cccc(Cl)c1)S(=O)(=O)c1ccccc1

>  <test-target>
C-C chemokine receptor type 5 (Homo sapiens, UniProt P51681)

>  <measurement-kind>
IC50

>  <output-unit>
nM

>  <reported-measurement>
1000

$$$$
>  <compound>
CN(C[C@@H](CCN1CCC2(CC1)C[S+]([O-])c1ccccc12)c1ccc(Cl)c(Cl)c1)S(=O)(=O)c1cccnc1 (stereo not given in full)

>  <test-target>
C-C chemokine receptor type 5 (Homo sapiens, UniProt P51681)

>  <measurement-kind>
IC50

>  <output-unit>
nM

>  <reported-measurement>
8490

$$$$
